Recorded values, source paper PMC7506137.

- Assay name: Plasma exposure (dried blood spot) after single oral dose
- Assay type: in vivo
- Conditions used: male, Sprague Dawley, rat, whole blood (dried blood spot), po, 0.1 mg/kg, oral 0.1 mg/kg, 1 h, dried blood spot, read-out: Concentration, individual animals
Endpoint name: concentration at 1 h (nM)
Respond with the bare value in nM.

# concentration at 1 h lookup, item O=c1c2nnc(C3(C4CC4)CC3)n2c2c(n1CC1CC1)CCCC2
249

###

- Assay name: Plasma exposure (dried blood spot) after single oral dose
- Assay type: in vivo
- Conditions used: male, Sprague Dawley, rat, whole blood (dried blood spot), po, 0.1 mg/kg, oral 0.1 mg/kg, 6 h, dried blood spot, read-out: Concentration, Mean
Endpoint name: concentration at 6 h (nM)
Respond with the bare value in nM.

# concentration at 6 h lookup, item O=c1c2nnc(C3(C4CC4)CC3)n2c2c(n1CC1CC1)CCCC2
87

###

- Assay name: Plasma exposure (dried blood spot) after single oral dose
- Assay type: in vivo
- Conditions used: male, Sprague Dawley, rat, whole blood (dried blood spot), po, 1 mg/kg, oral 1 mg/kg, 5 h, dried blood spot, read-out: Concentration, individual animals
Endpoint name: concentration at 5 h (nM)
Respond with the bare value in nM.

# concentration at 5 h lookup, item O=c1c2nnc(C3(C4CC4)CC3)n2c2c(n1CC1CC1)CCCC2 [BTTQ]
775

###

- Assay name: Plasma exposure (dried blood spot) after single oral dose
- Type: in vivo
- Conditions used: male, Sprague Dawley, rat, whole blood (dried blood spot), po, 0.1 mg/kg, oral 0.1 mg/kg, 4 h, FU 0.053, read-out: Unbound Concentration, Mean
Endpoint name: concentration at 4 h (nM)
Respond with the bare value in nM.

# concentration at 4 h lookup, item O=c1c2nnc(C3(C4CC4)CC3)n2c2c(n1CC1CC1)CCCC2
6.75

###

- Assay name: Plasma exposure (dried blood spot) after single oral dose
- Format: in vivo
- Conditions used: male, Sprague Dawley, rat, whole blood (dried blood spot), po, 0.1 mg/kg, oral 0.1 mg/kg, 24 h, dried blood spot, read-out: Concentration, Mean
Endpoint name: concentration at 24 h (nM)
Respond with the bare value in nM.

# concentration at 24 h lookup, item O=c1c2nnc(C3(C4CC4)CC3)n2c2c(n1CC1CC1)CCCC2 [BTTQ]
8.7

###

- Assay name: Plasma exposure (dried blood spot) after single oral dose
- Type: in vivo
- Conditions used: male, Sprague Dawley, rat, whole blood (dried blood spot), po, 0.03 mg/kg, oral 0.03 mg/kg, 2 h, dried blood spot, read-out: Concentration, individual animals
Endpoint name: concentration at 2 h (µM)
Respond with the bare value in µM.

# concentration at 2 h lookup, item O=c1c2nnc(C3(C4CC4)CC3)n2c2c(n1CC1CC1)CCCC2 [BTTQ]
0.0409

###

- Assay name: Rat PK parameters (IV and oral)
- Type: in vivo
- Conditions used: in vivo, 1 mg/kg, IV 1 mpk, mean ± SD, 3 animals, read-out: IV Vdss
Endpoint name: Vd (L/kg)
Respond with the bare value in L/kg.

# Vd lookup, item O=c1c2nnc(C3(C4CC4)CC3)n2c2c(n1CC1CC1)CCCC2 [BTTQ]
0.6

###

- Assay name: Plasma exposure (dried blood spot) after single oral dose
- Assay type: in vivo
- Conditions used: male, Sprague Dawley, rat, whole blood (dried blood spot), po, 0.3 mg/kg, oral 0.3 mg/kg, 2 h, dried blood spot, read-out: Concentration, Mean
Endpoint name: concentration at 2 h (nM)
Respond with the bare value in nM.

# concentration at 2 h lookup, item O=c1c2nnc(C3(C4CC4)CC3)n2c2c(n1CC1CC1)CCCC2
447
